B1: Osa-1-4 twister ribozyme (parent)
chain: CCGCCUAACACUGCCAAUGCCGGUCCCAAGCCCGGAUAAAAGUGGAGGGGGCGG

Variants of: B1
Experiment: self-cleavage, relative activity (ratio to wild type); higher = more cleavage; co-transcriptional
Answer NOT MET if self-cleavage is under 0.07, and MET if it is 0.07 or more.

The examples below pair each entry with its known result.
(Q) Is reported self-cleavage greater than or equal to 0.07 here: A17U G51U
(A) MET

(Q) I'd appreciate it if you could say whether C21G G53A has self-cleavage at least equal to 0.07.
(A) MET

(Q) Determine whether measured self-cleavage meets or exceeds 0.07 for A40C C14A
(A) NOT MET

Continuing:
(Q) Can A17C C9U be said to have self-cleavage at or above 0.07?
(A) MET

(Q) Test whether the variant A17C C27U records self-cleavage of 0.07 or higher.
(A) NOT MET

(Q) Hello, I need to know if C26G G48C has measured self-cleavage not below 0.07. Thanks!
(A) MET

(Q) Quick check: does A17U G19A have self-cleavage greater than or equal to 0.07?
(A) MET

(Q) Textbook exercise: given the entry A40G G13C , state whether its self-cleavage is greater than or equal to 0.07.
(A) NOT MET

(Q) Please indicate if the recorded self-cleavage for A10U G34A meets or exceeds 0.07.
(A) NOT MET
